system: SW480 (human primary colon cancer); test: MTT cytotoxicity assay; assay type: cell-based; conditions: Homo sapiens, SW480, 72 h, mean SD
Catalogue of IC50 readings, one per entry.
value-kind: IC50 (µM)

> print(dat)
                                   compound  value.kind  display.unit  lt.gt.eq  meas.value
1  Cc1ccc(C(C)C)c(OC(=O)CCCN2CCN(c3cc4c(cc3F)c(=O)c(C(=O)O)cn4C3CC3)CC2)c1 [Compound 12]        IC50            µM         =        33.7
2  CC(C)[C@@H]1CC[C@@H](C)C[C@H]1OC(=O)CN1CCN(c2cc3c(cc2F)c(=O)c(C(=O)O)cn3C2CC2)CC1 [Compound 2]        IC50            µM         =          36
3  CC(C)[C@@H]1CC[C@@H](C)C[C@H]1OC(=O)CCN1CCN(c2cc3c(cc2F)c(=O)c(C(=O)O)cn3C2CC2)CC1 [Compound 3]        IC50            µM         =        30.3
4  O=C(O)c1cn(C2CC2)c2cc(N3CCNCC3)c(F)cc2c1=O [Ciprofloxacin, reference compound]        IC50            µM         >         100
5  Cc1ccc(C(C)C)c(OC(=O)CCCCCOC(=O)c2cn(C3CC3)c3cc(N4CCN(CCCCCC(=O)Oc5cc(C)ccc5C(C)C)CC4)c(F)cc3c2=O)c1 [Compound 16]        IC50            µM         =        29.5
6  Cc1ccc(C(C)C)c(OC(=O)CCN2CCN(c3cc4c(cc3F)c(=O)c(C(=O)O)cn4C3CC3)CC2)c1 [Compound 11]        IC50            µM         =        33.7
